System: SEM cells
run_description: cell viability relative to DMSO control; higher = less cytotoxic
test_settings: RPMI 5 mM glucose + 10% FBS; 48 h; 5.12 µM
observable: cell viability (%)
Give bare numbers, in %.

>  <molecule>
CC(C)Nc1cc(C(F)(F)F)cc2nc(NC(=O)c3cccnc3)nn12

>  <cell viability [%]>
15.8

$$$$
>  <molecule>
Oc1ccc(C2CCN(c3ccnc4ccccc34)CC2)cc1O

>  <cell viability [%]>
62.3

$$$$

Please supply cell viability for each of the following items, keeping them in order.
1. CC(=O)CC(C1=CC=CC=C1)C/2=C(O)/C3=CC=CC=C3OC2=O (centres undefined)
2. COc1cc2c(Nc3ccc(Cl)c(Cl)c3F)ncnc2cc1OC[C@@H]1C[C@@H]2CN(C)C[C@@H]2C1
3. C[C@@H]1CN[C@H]2[C@@H](C)[C@@]\3(CC[C@H]\4[C@@H]5C/C=C6/C[C@@H](O)CC[C@]6(C)[C@H]5CC4=C3C)O[C@@H]2C1
4. CC(C)n1nc(-c2ccc3oc(N)nc3c2)c2c(N)ncnc21
5. NC1=NC=C(C=C1)C2=CC=C3N=CC\4=C(N(C(=O)\C=C4)C5=CC(=CC=C5)C(F)(F)F)C3=C2

Output:
1. 115
2. 44.4
3. 105
4. 25.1
5. 8.57

Return reported cell viability values for all items listed beneath this line.
1. C\C1=C\N([C@H]2C[C@H](N=[N+]=[N-])[C@@H](CO)O2)C(=O)NC1=O
2. Cn1cc(-c2ccc3nnc(C(F)(F)c4ccc5ncccc5c4)n3n2)cn1
3. CC(C)C[C@H](NC(=O)CNC(=O)c1cc(Cl)ccc1Cl)B1OC(=O)CC(CC(=O)O)(C(=O)O)O1 (some centres undefined)
4. Cn1c(Nc2ccc(C(F)(F)F)cc2)nc2cc(Oc3ccnc(-c4nc(C(F)(F)F)c[nH]4)c3)ccc21
5. CCN(CC)C(=S)SSC(=S)N(CC)CC
6. COc1cc2c(Oc3ccc(NC(=O)C4(C(=O)Nc5ccc(F)cc5)CC4)cc3F)ccnc2cc1OCCCN1CCOCC1
7. N=C(N)NC(=O)c1nc(Cl)c(N)nc1N

Output:
1: 92.2; 2: 114; 3: 6.61; 4: 53.4; 5: 2.66; 6: 10.9; 7: 113

Hi, could you look up cell viability for each item in my list?
1. ClC1=CC(=CC=C1)N2CCN(CCCN3\N=C4\C=C/C=C\N4C3=O)CC2
2. CCc1c(C(=O)C(N)=O)c2c(OCC(=O)O)cccc2n1Cc1ccccc1
3. COc1cc(Nc2ncc(F)c(Nc3ccc4c(n3)NC(=O)C(C)(C)O4)n2)cc(OC)c1OC

Output:
150
114
3.27

###

Tested on: NOMO1
run_description: cell viability relative to DMSO control; higher = less cytotoxic
test_settings: HPLM + 10% dialyzed FBS; 48 h; 0.00234 µM
observable: cell viability (%)
Answers are plain numbers, in %.

>  <mol_smiles>
CC\1=C(C(=O)N(\C=C1)C2=CC=C(C=C2)C3=NC=CO3)/C4=CC5=CN=C(N)N=C5C=C4

>  <units_of_measure>
%

>  <cell viability>
107

$$$$
>  <mol_smiles>
CC(=O)OCC(=O)[C@@]12\N=C(C)/O[C@@H]1C[C@H]3[C@@H]4CCC/5=C/C(=O)/C=C\[C@]5(C)[C@H]4[C@@H](O)C[C@]23C

>  <units_of_measure>
%

>  <cell viability>
102

$$$$
>  <mol_smiles>
NC(CO)(CO)CCc1ccc(Sc2cccc(OCc3ccccc3)c2)cc1Cl

>  <units_of_measure>
%

>  <cell viability>
107

$$$$
>  <mol_smiles>
C\C1=C\N([C@H]2C[C@H](N=[N+]=[N-])[C@@H](CO)O2)C(=O)NC1=O

>  <units_of_measure>
%

>  <cell viability>
109

$$$$
>  <mol_smiles>
Cn1cc(-c2ccc3nnc(C(F)(F)c4ccc5ncccc5c4)n3n2)cn1

>  <units_of_measure>
%

>  <cell viability>
99.1

$$$$

# map each molecule to its cell viability
1. NC1=NC=C(C=C1)C2=CC=C3N=CC\4=C(N(C(=O)\C=C4)C5=CC(=CC=C5)C(F)(F)F)C3=C2
2. CN(C)CCc1c[nH]c2ccc(C[C@H]3COC(=O)N3)cc12
3. CCN(CC)CCCCNc1nc2cc(Cl)c(Cl)cc2nc1-c1ccc(-c2cccs2)s1

Output:
[76.8, 119, 124]

###

Tested on: NOMO1
run_description: cell viability relative to DMSO control; higher = less cytotoxic
test_settings: RPMI 5 mM glucose + 10% FBS; 48 h; 46.1 µM
// boundary case: cell viability equal to 90% maps to f; strictly smaller maps to t

Study these solved cases before continuing.
>  <compound>
O=C(CO)N1CCC(c2n[nH]c(-c3ccc(Cl)cc3)c2-c2ccncn2)CC1

>  <measured_target>
NOMO1

>  <class>
f

$$$$
>  <compound>
CC1(C)OC2CC3C4CC(F)C/5=C/C(=O)/C=C\C5(C)C4C(O)CC3(C)[C@@]2(O1)C(=O)CO (stereo partly drawn)

>  <measured_target>
NOMO1

>  <class>
f

$$$$
>  <compound>
C[C@@]12O[C@@H](C[C@]1(O)CO)n1c3ccccc3c3c4c(c5c6ccccc6n2c5c31)CNC4=O

>  <measured_target>
NOMO1

>  <class>
t

$$$$

Task: Dear colleague, could you confirm whether cell viability of COc1cc(C)c(Sc2cnc(NC(=O)c3ccc(CNC(C)C(C)(C)C)cc3)s2)cc1C(=O)N1CCN(C(C)=O)CC1 (stereo not drawn) falls below 90%? Thanks.
Output: t

Task: Lab log: compare recorded cell viability with 90%; is it strictly lower for CC(=O)OCC(=O)[C@@]12\N=C(C)/O[C@@H]1C[C@H]3[C@@H]4CCC/5=C/C(=O)/C=C\[C@]5(C)[C@H]4[C@@H](O)C[C@]23C ?
Output: f

Task: Confirm or reject: cell viability of Cc1cccc(-c2nn(C(=S)Nc3ccccc3)cc2-c2ccnc3ccccc23)n1 lies strictly below 90%
Output: f

Task: Hi there! Is cell viability for [NH2][Pt]([NH2])([Cl])[Cl] below 90%, do you know?
Output: t

###

System: SEM cells
run_description: cell viability relative to DMSO control; higher = less cytotoxic
test_settings: HPLM + 10% dialyzed FBS; 48 h; 0.569 µM
observable: cell viability (%)
One number for each entry, in %.

>  <mol_smiles>
COc1cc2c(Nc3ccc(Cl)c(Cl)c3F)ncnc2cc1OC[C@@H]1C[C@@H]2CN(C)C[C@@H]2C1

>  <cell viability (%)>
100

$$$$
>  <mol_smiles>
CCOC(=O)[C@H](CCc1ccccc1)N[C@@H](C)C(=O)N1CCC[C@H]1C(=O)O

>  <cell viability (%)>
107

$$$$
>  <mol_smiles>
C\C1=C\N([C@H]2C[C@H](N=[N+]=[N-])[C@@H](CO)O2)C(=O)NC1=O

>  <cell viability (%)>
95.4

$$$$
>  <mol_smiles>
CC(C)(C)C(=O)OCOP(=O)(COCCn1cnc2c(N)ncnc21)OCOC(=O)C(C)(C)C

>  <cell viability (%)>
68.1

$$$$

Your task in this section: give cell viability for each listed record.
1. CCCCNc1cc(C(=O)O)cc([S+](N)(=O)[O-])c1Oc1ccccc1
2. C[C@H]1C[C@H]2[C@@H]3CCC4=CC(=O)C=C[C@]4(C)[C@@]3(F)[C@@H](O)C[C@]2(C)[C@@]1(O)C(=O)CO
3. Cn1cc(-c2ccc3nnc(C(F)(F)c4ccc5ncccc5c4)n3n2)cn1
4. CN1\C(=C(\O)C2=C(C=CS2)[S+]1([O-])=O)C(=O)NC3=CC=CC=N3

Output:
[99.9, 68.9, 113, 109]

###

Test system: P12-Ichikawa
run_description: cell viability relative to DMSO control; higher = less cytotoxic
test_settings: RPMI 5 mM glucose + 10% dialyzed FBS; 48 h; 0.00702 µM
Exercise: state measured cell viability for each of the compounds provided.
Numbers only, in %.

>  <mol_smiles>
Cn1cc(-c2ccc3nnc(C(F)(F)c4ccc5ncccc5c4)n3n2)cn1

>  <cell viability [%]>
120

$$$$
>  <mol_smiles>
CC\1=C(C(=O)N(\C=C1)C2=CC=C(C=C2)C3=NC=CO3)/C4=CC5=CN=C(N)N=C5C=C4

>  <cell viability [%]>
111

$$$$
>  <mol_smiles>
c1cc(CN2CCCNCCNCCCNCC2)ccc1CN1CCCNCCNCCCNCC1

>  <cell viability [%]>
92.9

$$$$
>  <mol_smiles>
N[S+](=O)([O-])c1cc(Cl)c(Cl)c([S+](N)(=O)[O-])c1

>  <cell viability [%]>
97

$$$$

// next entry
Task: // query cell viability value for entry OC[C@H]1O[C@H]([C@@H](F)[C@@H]1O)N2\C=C/C(=O)NC2=O
Output: 104
